Source: the supplement of paper PMC6555819

tested on: PPARg:RXRa 270nM:90nM, anti-RXR (NR concentration 270 nM, RXRa partner concentration 90 nM); assay: PBM binding z-score (relative to random genomic background probes); higher = stronger binding; sequences stand for … in GC…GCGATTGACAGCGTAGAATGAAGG
attribute-measured: PBM binding z-score
Field format: numeric only.

Observe how each entry below is paired with its result.
- chain: "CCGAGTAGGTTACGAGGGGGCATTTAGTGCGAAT"
  assay-result: 3.44
- chain: "ACTAGCAGGCCAAAGGTCACTCAAGATTAGTCCG"
  assay-result: 8.65
- chain: "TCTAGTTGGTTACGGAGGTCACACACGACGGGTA"
  assay-result: 3.61
- chain: "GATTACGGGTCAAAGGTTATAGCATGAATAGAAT"
  assay-result: 9.6

Data point: CCTTACGGGTCAAGGTAATAGCACGGGTGGTACG ; PBM binding z-score = 4.34

Sure, the documented PBM binding z-score for CCTACTGGGCCACGAAAGGGCATTGATTCAGTGA is 1.95

Sure, the documented PBM binding z-score for TCGAGTAGGTTACGGGCGCATTCAGGGATGAAGA is 1.62
